# experiment: solvent given as SMILES
# measurement-conditions: in CN(C)C=O
Please use 1 for fluorescence lifetime under 5 ns and 0 for everything else, ties included.

[[record]]
sample_smiles = "Nc1ccc(N2C(=O)c3ccc4c5ccc6c7c(ccc(c8ccc(c3c48)C2=O)c75)C(=O)N(c2ccc(N)cc2)C6=O)cc1"
qualitative_label = 1

[[record]]
sample_smiles = "CCc1ccc(-c2nc(-c3ccc(-n4c5ccccc5c5ccccc54)cc3)cc(-c3ccc(-n4c5ccccc5c5ccccc54)cc3)n2)cc1"
qualitative_label = 0

[[record]]
sample_smiles = "CN(C)c1c2ccccc2cc2ccccc12"
qualitative_label = 0

[[record]]
sample_smiles = "COc1ccc(C#Cc2c3ccccc3c3n2[B-](F)(F)[N+]2=C(C)C=C(C)C2=C3)cc1"
qualitative_label = 1

[[record]]
sample_smiles = "c1ccc(-c2cc(-c3ccc(-c4nc(-c5ccccn5)c(-c5ccccn5)[nH]4)cc3)cc(-c3ccccn3)n2)nc1"
qualitative_label = 1

[[record]]
sample_smiles = "c1ccc(-c2nn(-c3ccccc3)c3nc4ccccc4cc23)cc1"
qualitative_label = 0

[[record]]
sample_smiles = "CSc1sc(C(N)=O)c2nnn(C)c(=O)c12"
qualitative_label = 0

[[record]]
sample_smiles = "CCn1c2sccc2c2c3nsnc3c3c4ccsc4n(CC)c3c21"
qualitative_label = 0

[[record]]
sample_smiles = "CCCCCCC(CCCCCC)N1C(=O)c2cccc3c(-c4ccc(OC)cc4)ccc(c23)C1=O"
qualitative_label = 0


====

# experiment: solvent given as SMILES
# measurement-conditions: in CO
Consider the following compounds and their measured log10 fluorescence lifetime readings.
reported-property: log10 fluorescence lifetime (log10 of the value in ns)

[[record]]
compound = "Cn1c(/C=C/c2ccc(/C=C/c3nc4ccccc4[nH]3)cc2)[n+](C)c2ccccc21"
measured_value = -0.11

[[record]]
compound = "COC(=O)C(Cc1ccc2oc(-c3ccc(-n4c5ccccc5c5ccccc54)cc3)nc2c1)NC(=O)OC(C)(C)C (stereo not given)"
measured_value = 0.73

[[record]]
compound = "CCc1c(C)[nH]c(C2=[N+]3C(=Cc4c(C)cc(C)n4[B-]3(F)F)c3ccccc32)c1C"
measured_value = 0.75

[[record]]
compound = "Cn1ccc(-c2nc3ccccc3nc2/C=C/N2CCCC2)c1"
measured_value = -0.92

[[record]]
compound = "COc1nc(Nc2ccc3c4c(cccc24)C(=O)c2ccccc2-3)nc(OC)n1"
measured_value = 0.87

[[record]]
compound = "CCOC(=O)C1=CNC=C(C(=O)OCC)C1c1ccccc1"
measured_value = 1.14

[[record]]
compound = "ClC(Cl)=C1c2ccccc2C(C2(Cl)c3ccccc3C(=C(Cl)Cl)c3ccccc32)c2ccccc21 (stereo not given)"
measured_value = 1.05

[[record]]
compound = "Cc1ccc(C2=C3C=CC(/C=C/c4ccccc4)=[N+]3[B-](F)(F)n3c(Cl)ccc32)cc1"
measured_value = 0.50

[[record]]
compound = "Cc1ccc(C2CC(c3ccc(O)cc3)=NN2c2ccc(S(N)(=O)=O)cc2)cc1 (stereo not given)"
measured_value = 0.22

[[record]]
compound = "Cc1cccc2nc3c(=O)[nH]c(=O)[nH]c3nc12"
measured_value = 0.20

[[record]]
compound = "c1ccc2c(c1)CCc1c-2cnc2c1-c1ccccc1CC2"
measured_value = 0.60

[[record]]
compound = "Cc1cc(=O)c2ccc(N)cc2o1"
measured_value = 0.65

[[record]]
compound = "CCCn1c2cccc3oc4cccc5c4[c+](c32)c2c1cccc2n5CCC"
measured_value = 1.25

[[record]]
compound = "CC(C)(C)C1Nc2ccccc2C(=O)N1Cc1ccccc1 (stereo not given)"
measured_value = 0.72

[[record]]
compound = "CCN(CC)c1ccc2nc3c4ccccc4c(=O)cc-3oc2c1"
measured_value = 0.45

[[record]]
compound = "CN(C)c1c2ccccc2cc2ccccc12"
measured_value = 0.60

[[record]]
compound = "CCC1=C(C)C2=Cc3cc(I)cn3[B-](F)(F)[N+]2=C1C"
measured_value = -0.49

[[record]]
compound = "O=c1oc2ccccc2cc1-c1nc2ccccc2o1"
measured_value = 0.54

[[record]]
compound = "C/C(=N\\Nc1ccc(C#N)cc1)c1cccc(/C(C)=N/Nc2ccc(C#N)cc2)c1"
measured_value = 0.10

[[record]]
compound = "CCOC(=O)CCCCCn1c2ccccc2c(=O)c2cc3c(cc21)c(=O)c1ccccc1n3CCCCCC(=O)OCC"
measured_value = 1.33

[[record]]
compound = "COc1c2ccccc2c(OC)c2c1c1cccc(OC)c1n2C"
measured_value = 1.40

[[record]]
compound = "N#Cc1cccc2[nH]ccc12"
measured_value = 0.76

[[record]]
compound = "COc1ccc(-c2ccc(-c3ccc(C#N)s3)s2)cc1"
measured_value = 0.03

[[record]]
compound = "CC1=CC(C)=[N+]2C1=C(C)c1cccn1[B-]2(F)F"
measured_value = 0.80

[[record]]
compound = "O=C(O)c1ccc2ccc3cccc4ccc1c2c34"
measured_value = 1.19

[[record]]
compound = "c1ccc2c(-c3cc(-c4nccs4)nc(-c4nccs4)c3)cccc2c1"
measured_value = 0.27

[[record]]
compound = "COC(=O)c1ccc(C#Cc2ccccc2)cc1"
measured_value = -0.21

[[record]]
compound = "CCN(CC)c1ccc(C=Cc2nc3nc4ccccc4nc3s2)cc1"
measured_value = -1.30

[[record]]
compound = "CN1c2ccccc2CCc2ccccc21"
measured_value = -0.09

[[record]]
compound = "O=C1c2ccccc2-c2c(-c3ccccc3)c(-c3ccccc3)c(-c3ccccc3)c3cccc1c23"
measured_value = 0.96

[[record]]
compound = "N#Cc1ccc(/C=C/c2ccc3ccc4cccc5ccc2c3c45)cc1"
measured_value = 0.20

[[record]]
compound = "COc1c2ccccc2c(-c2ccccc2)c2ccccc12"
measured_value = 0.31

[[record]]
compound = "C/C(=N\\Nc1ccc(C#N)cc1)c1ccccn1"
measured_value = 0.23

[[record]]
compound = "C#CCN1C(=O)/C(=C/c2cc(OC(C)C)ccc2OC(C)C)N=C1C"
measured_value = 0.04

[[record]]
compound = "CC1=CC(C)=[N+]2C1=Cc1c(C)cc(C)n1[B-]2(F)F"
measured_value = 0.77

[[record]]
compound = "CC[n+]1c(C=C2C(=O)C(C=C3N(C)c4ccccc4C3(C)C)=C2[O-])[se]c2ccccc21"
measured_value = -0.39

[[record]]
compound = "COc1nc(Cl)nc(Nc2ccc3c4c(cccc24)C(=O)c2ccccc2-3)n1"
measured_value = 0.89

[[record]]
compound = "CN1CCN(CCCN2c3ccccc3Sc3ccc(Cl)cc32)CC1"
measured_value = -0.05

[[record]]
compound = "CC[n+]1c(C=C2C(=O)C(C=C3N(C)c4ccc(Cl)cc4C3(C)C)=C2[O-])[se]c2ccccc21"
measured_value = -0.37

[[record]]
compound = "CC(=O)Nc1ccc2c3c(cccc13)C(=O)c1ccccc1-2"
measured_value = 0.92

[[record]]
compound = "CN(C)c1ccc(/C=C2\\CC/C(=C\\c3ccc(N(C)C)cc3)C2=O)cc1"
measured_value = -0.54

[[record]]
compound = "Cc1ccc(-c2cc(-c3ccccc3)c3c(N)nc(N4CCCC4)c(C#N)c3n2)cc1"
measured_value = 0.93

[[record]]
compound = "O=C(O)c1c2ccccc2nc2ccccc12"
measured_value = -0.10

[[record]]
compound = "Cc1cc(C(F)(F)F)nc2c1ccc1nc(-c3ccc(F)c(F)c3)cn12"
measured_value = 0.92

[[record]]
compound = "CSc1ccc2c(c1)N(CCCN(C)C)c1ccccc1S2"
measured_value = 0.06


Values were extracted from the Deep4Chem optical property database.
